These entries and their values trace back to ChEMBL document CHEMBL2010698.

Give measured Papp at 4 h for each item. Keep answers brief.
Test: in vitro
Conditions: pig, PAMPA
Description: Permeability across porcine brain lipid layer after 240 mins by PAMPA-BBB assay
Numbers only, in ×10⁻⁶ cm/s.

The examples below pair each entry with its known result.
CC1=CC2Cc3nc4cc(Cl)ccc4c(NCCCN(C)CCCNc4c5c(nc6cc(Cl)ccc46)CCCC5)c3C(C1)C2.Cl (racemic) : 7
CC1=CC2Cc3nc4cc(Cl)ccc4c(NCCCCCCCCCCNc4c5c(nc6cc(Cl)ccc46)CCCC5)c3C(C1)C2.Cl.Cl.Cl.Cl (racemic) : 29.1
CC1=CC2Cc3nc4cc(Cl)ccc4c(NCCCCCCNc4c5c(nc6cc(Cl)ccc46)CCCC5)c3C(C1)C2.Cl (racemic) : 12
CC1=CC2Cc3nc4cc(Cl)ccc4c(NCCCN(C)CCCNc4c5c(nc6ccccc46)CCCC5)c3C(C1)C2.Cl (racemic) : 11.4

Now for a further molecule.
Incoming: Item CC1=CC2Cc3nc4cc(Cl)ccc4c(NCCCCCCCCCNc4c5c(nc6cc(Cl)ccc46)CCCC5)c3C(C1)C2.Cl.Cl.Cl.Cl (racemic) has what recorded Papp at 4 h?
Outgoing: 15.6

###

Target: Cholinesterase (Homo sapiens)
Sequence (P06276 whole entry): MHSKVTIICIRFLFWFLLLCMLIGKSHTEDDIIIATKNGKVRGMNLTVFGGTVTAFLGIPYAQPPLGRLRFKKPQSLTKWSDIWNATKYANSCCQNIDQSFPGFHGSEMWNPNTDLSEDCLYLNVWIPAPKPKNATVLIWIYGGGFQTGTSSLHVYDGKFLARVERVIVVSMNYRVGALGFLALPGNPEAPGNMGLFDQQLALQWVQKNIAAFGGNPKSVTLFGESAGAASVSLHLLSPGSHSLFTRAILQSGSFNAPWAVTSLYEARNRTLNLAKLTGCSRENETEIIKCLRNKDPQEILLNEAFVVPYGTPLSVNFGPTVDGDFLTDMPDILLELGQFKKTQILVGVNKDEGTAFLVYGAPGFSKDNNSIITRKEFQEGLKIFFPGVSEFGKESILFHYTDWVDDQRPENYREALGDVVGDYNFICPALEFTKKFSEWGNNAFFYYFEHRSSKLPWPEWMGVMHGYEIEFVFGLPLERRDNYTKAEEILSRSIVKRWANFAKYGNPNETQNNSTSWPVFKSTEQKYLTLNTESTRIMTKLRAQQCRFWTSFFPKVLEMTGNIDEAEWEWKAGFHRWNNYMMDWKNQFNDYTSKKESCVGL
metric: pIC50
Numbers only, as −log10 of the molar value.

Some entries whose results are on file:
CC1=CC2Cc3nc4cc(Cl)ccc4c(NCCCN(C)CCCNc4c5c(nc6cc(Cl)ccc46)CCCC5)c3C(C1)C2.Cl (racemic) : 7.29
CC1=CC2Cc3nc4cc(Cl)ccc4c(NCCCCCCCNc4c5c(nc6ccccc46)CCCC5)c3C(C1)C2.Cl.Cl.Cl (racemic) : 7.06
CC1=CC2Cc3nc4cc(Cl)ccc4c(NCCCCCCCCNc4c5c(nc6cc(Cl)ccc46)CCCC5)c3C(C1)C2.Cl (racemic) : 7.45

Items follow; give pIC50 for each.
1. CC1=C[C@@H]2Cc3nc4cc(Cl)ccc4c(NCCCCCCCNc4c5c(nc6cc(Cl)ccc46)CCCC5)c3[C@H](C1)C2
2. CC1=CC2Cc3nc4cc(Cl)ccc4c(NCCCCCCCCCCNc4c5c(nc6ccccc46)CCCC5)c3C(C1)C2.Cl.Cl.Cl (racemic)
3. CC1=CC2Cc3nc4cc(Cl)ccc4c(NCCCCCCCCCNc4c5c(nc6cc(Cl)ccc46)CCCC5)c3C(C1)C2.Cl.Cl.Cl.Cl (racemic)
4. CC1=C[C@H]2Cc3nc4cc(Cl)ccc4c(NCCCCCCCNc4c5c(nc6ccccc46)CCCC5)c3[C@@H](C1)C2

Outgoing:
7.06
7.58
7.57
6.86

Field: pIC50. Fill in for each record below.
1. CC1=CC2Cc3nc4cc(Cl)ccc4c(NCCCCCCCCNc4c5c(nc6ccccc46)CCCC5)c3C(C1)C2.Cl (racemic)
2. CC1=C[C@H]2Cc3nc4cc(Cl)ccc4c(NCCCCCCCNc4c5c(nc6cc(Cl)ccc46)CCCC5)c3[C@@H](C1)C2

Outgoing:
1: 7.13; 2: 7.32

###

Listed here: compounds with reported IC50 for UniProtKB P06276.
Answers are plain numbers, in nM.

CC1=CC2Cc3nc4cc(Cl)ccc4c(NCCCCCCCNc4c5c(nc6cc(Cl)ccc46)CCCC5)c3C(C1)C2.Cl.Cl.Cl.Cl (racemic) : 73.3
CC1=CC2Cc3nc4cc(Cl)ccc4c(NCCCN(C)CCCNc4c5c(nc6ccccc46)CCCC5)c3C(C1)C2.Cl (racemic) : 44.2
CC1=CC2Cc3nc4cc(Cl)ccc4c(NCCCCCCNc4c5c(nc6cc(Cl)ccc46)CCCC5)c3C(C1)C2.Cl (racemic) : 75.2

# map each compound to its IC50
1. CC1=CC2Cc3nc4cc(Cl)ccc4c(N)c3C(C1)C2 (racemic)
2. CC1=C[C@@H]2Cc3nc4cc(Cl)ccc4c(NCCCCCCCNc4c5c(nc6ccccc46)CCCC5)c3[C@H](C1)C2
3. CC1=CC2Cc3nc4cc(Cl)ccc4c(NCCCCCCNc4c5c(nc6ccccc46)CCCC5)c3C(C1)C2.Cl (racemic)
4. CC1=CC2Cc3nc4cc(Cl)ccc4c(NCCCCCCCCCCNc4c5c(nc6cc(Cl)ccc46)CCCC5)c3C(C1)C2.Cl.Cl.Cl.Cl (racemic)

Outgoing:
[175, 133, 24.6, 76.6]
